Values compiled from ChEMBL document CHEMBL3632592.

Known IC50 of a selection of molecules
testSummary: Antioxidant activity assessed as ABTS radical scavenging activity after 7 mins
Assay type: physicochemical
Give a bare numeral; the unit µM is implied.

Previously resolved entries follow.
CSc1nc(N)c2ncn([C@@H]3O[C@H](COP(=O)(S)OP(=O)(O)O)[C@@H](O)[C@H]3O)c2n1 (stereo in doubt; 7A) ... 12.5
Nc1ncnc2c1ncn2[C@@H]1O[C@H](COP(=O)(O)OP(=O)(O)S)[C@@H](O)[C@H]1O (stereo partly drawn) ... 15

Query string: Tell me its IC50 given CSc1nc(N)c2ncn([C@@H]3O[C@H](COP(=O)(O)OP(=O)(O)S)[C@@H](O)[C@H]3O)c2n1 (stereo partly drawn) as the entry.
Result string: 15
